Tested on: wheat (Triticum aestivum)
TEST: Test A postemergence application, visual injury rating 0-100
Format: in vivo
EXPERIMENTAL CONDITIONS: Postemergence, 31 g ai/ha, greenhouse 10 days; 0 no effect, 100 complete control
Task for the reader: assign each of the following compounds its reported Wheat plant response rating (0 to 100 scale).
Could you keep your reply to the number by itself?

Reported Wheat plant response rating (0 to 100 scale) for CC1(C(=O)NC2CC=C(C(=O)NS(=O)(=O)C3CC3)C2)CN(c2cc(Cl)cc(Cl)c2)C(=O)O1 (stereo not shown) [Compound 75] was 70

Recorded result, CCS(=O)(=O)NC(=O)C1C=CC(NC(=O)C2(C)CN(c3cc(F)cc(F)c3)C(=O)O2)C1 (stereo not shown) [Compound 81] , Wheat plant response rating (0 to 100 scale): 90

The compound CC(C)OC(=O)C1=CCC(NC(=O)C2(C)CN(c3cc(Cl)cc(Cl)c3)C(=O)O2)C1 (stereo not shown) [Compound 70] showed Wheat plant response rating (0 to 100 scale) equal to 80

Briefly, Wheat plant response rating (0 to 100 scale) measured for CSCCOC(=O)C1C=CC(NC(=O)C2(C)CN(c3cc(Cl)cc(Cl)c3)C(=O)O2)C1 (stereo not shown) [Compound 69] : 90

Just so you know, measured Wheat plant response rating (0 to 100 scale) for CC1(C(=O)NC2C=CC(C(=O)ON=Cc3ccccc3)C2)CN(c2cc(F)cc(F)c2)C(=O)O1 (stereo not shown) [Compound 68] came out at 80

What the record says about CC1(C(=O)NC2C=CC(C(=O)OCC(F)(F)F)C2)CN(c2cc(Cl)cc(Cl)c2)C(=O)O1 (stereo not shown) [Compound 64] : Wheat plant response rating (0 to 100 scale) is 90

Briefly, Wheat plant response rating (0 to 100 scale) measured for CC(=O)COC(=O)C1C=CC(NC(=O)C2(C)CN(c3cc(Cl)cc(Cl)c3)C(=O)O2)C1 (stereo not shown) [Compound 67] : 90

---

Kindly state Pigweed, Palmer plant response rating for each of the entries shown.
Test system: palmer (palmer amaranth, palmer pigweed, Amaranthus palmeri)
TEST: Test A preemergence soil spray, visual injury rating 0-100
Format: in vivo
EXPERIMENTAL CONDITIONS: 16 g ai/ha, 0 to 100 scale, 10 days
Text: […]
A bare number is all that is needed in reply.

Kindly note the recorded Pigweed, Palmer plant response rating for COC(=O)C1CC(NC(=O)C2(C)CN(c3cc(F)cc(F)c3)C(=O)O2)C1 (centres unmarked) , which is 0

CC(C)OC(=O)C1=CCC(NC(=O)C2(C)CN(c3cc(F)cc(F)c3)C(=O)O2)C1 (centres unmarked) has a reported Pigweed, Palmer plant response rating of 90

Reported Pigweed, Palmer plant response rating of CC(C)COC(=O)C1=CCC(NC(=O)C2(C)CN(c3cc(F)cc(F)c3)C(=O)O2)C1 (centres unmarked) : 0

Pigweed, Palmer plant response rating in this record for CC1(C(=O)NC2CC=C(C(=O)OCC(F)F)C2)CN(c2cc(F)cc(F)c2)C(=O)O1 (centres unmarked) [Compound 152] : 0

Given item C=CC1(C(=O)NC2CC(C(=O)OC)C2)CN(c2cc(F)cc(F)c2)C(=O)O1 (centres unmarked) [Compound 173] , the value recorded as its Pigweed, Palmer plant response rating is 20

Entry CC(C)COC(=O)C1=CCC(NC(=O)C2(C)CN(c3cc(F)cc(Cl)c3)C(=O)O2)C1 (centres unmarked) , Pigweed, Palmer plant response rating reported as 0

Recorded Pigweed, Palmer plant response rating (molecule CC1(C(=O)NC2CC=C(C(=O)OCC3CC3)C2)CN(c2cc(F)cc(Cl)c2)C(=O)O1 (centres unmarked) ): 50

Data point: CC(C)OC(=O)C1=CCC(NC(=O)C2(C)CN(c3cc(Cl)cc(Cl)c3)C(=O)O2)C1 (centres unmarked) ; Pigweed, Palmer plant response rating = 0

---

Test system: ragweed (common ragweed, Ambrosia artemisiifolia)
TEST: Test A postemergence application, visual injury rating 0-100
Format: in vivo
EXPERIMENTAL CONDITIONS: Postemergence, 16 g ai/ha, greenhouse 10 days; 0 no effect, 100 complete control
Answer each item with its documented Ragweed plant response rating (0 to 100 scale).
Give a plain numeric answer without units written out.

Lookup result for CC1(C(=O)NC2CC=C(C(=O)OCC(F)F)C2)CN(c2cc(Cl)cc(Cl)c2)C(=O)O1 (centres unmarked) ; measured Ragweed plant response rating (0 to 100 scale): 40

So for CSCCOC(=O)C1=CCC(NC(=O)C2(C)CN(c3cc(Cl)cc(Cl)c3)C(=O)O2)C1 (centres unmarked) , the logged Ragweed plant response rating (0 to 100 scale) turned out to be 0

Documented Ragweed plant response rating (0 to 100 scale) of CC(C)COC(=O)C1=CCC(NC(=O)C2(C)CN(c3cc(F)cc(F)c3)C(=O)O2)C1 (centres unmarked) : 0

Data point: CCOC(=O)C1=CCC(NC(=O)C2(C)CN(c3cc(Cl)cc(Cl)c3)C(=O)O2)C1 (centres unmarked) ; Ragweed plant response rating (0 to 100 scale) = 0

Item: COC(=O)C1CC(NC(=O)C2(C)CN(c3cc(F)cc(F)c3)C(=O)O2)C1 (centres unmarked) | Ragweed plant response rating (0 to 100 scale): 0

For record CC(C)COC(=O)C1=CCC(NC(=O)C2(C)CN(c3cc(F)cc(Cl)c3)C(=O)O2)C1 (centres unmarked) the listed Ragweed plant response rating (0 to 100 scale) is 0

Notebook: C=CC1(C(=O)NC2CC(C(=O)OC)C2)CN(c2cc(F)cc(F)c2)C(=O)O1 (centres unmarked) [Compound 175] , Ragweed plant response rating (0 to 100 scale) read as 0

response.value for CC1(C(=O)NC2CC=C(C(=O)O)C2)CN(c2cc(Cl)cc(Cl)c2)C(=O)O1 (centres unmarked) (field: Ragweed plant response rating (0 to 100 scale)) = 50

For this compound ( CC1(C(=O)NC2CC(C(=O)O)C2)CN(c2cc(F)cc(Cl)c2)C(=O)O1 (racemic) ), measured Ragweed plant response rating (0 to 100 scale) is 40

What the record says about CC1(C(=O)NC2CC=C(C(=O)OCC3CC3)C2)CN(c2cc(F)cc(Cl)c2)C(=O)O1 (centres unmarked) : Ragweed plant response rating (0 to 100 scale) is 20

For reference, reported Ragweed plant response rating (0 to 100 scale) for CC(C)OC(=O)C1=CCC(NC(=O)C2(C)CN(c3cc(Cl)cc(Cl)c3)C(=O)O2)C1 (centres unmarked) [Compound 105] stands at 0

---

Provide the reported Soybean plant response rating (0-100) of each item.
Tested on: soybean (Glycine max)
TEST: Test A preemergence soil spray, visual injury rating 0-100
Type: in vivo
EXPERIMENTAL CONDITIONS: 31 g ai/ha, 10 days, 0 = no effect, 100 = complete control
Provide a numeric answer; units are not to be included.

The observed Soybean plant response rating (0-100) for CNC(=O)C1CCC(NC(=O)C2(C)CN(c3cc(F)cc(F)c3)C(=O)O2)C1 (stereo not drawn) when tested with soybean (Glycine max) stands at 0

Kindly note: soybean (Glycine max), CONC(=O)C1CC(NC(=O)C2(C)CN(c3cc(F)cc(F)c3)C(=O)O2)CO1 (stereo not drawn) [Compound 40] , Soybean plant response rating (0-100) value reported: 0

Given the compound CCOC(=O)C1CCC(NC(=O)C2(C)CN(c3cc(F)cc(F)c3)C(=O)O2)C1 (stereo not drawn) and test system soybean (Glycine max), the measured Soybean plant response rating (0-100) is 0

Value (Soybean plant response rating (0-100), soybean (Glycine max)) for record CC1(C(=O)NC2C=CC(C(=O)NS(=O)(=O)C(C)(C)C)C2)CN(c2cc(F)cc(F)c2)C(=O)O1 (stereo not drawn) = 0

CC1(C(=O)NC2C=CC(C(=O)O)C2)CN(c2cc(Cl)cc(Cl)c2)C(=O)O1 (stereo not drawn) on soybean (Glycine max) gives Soybean plant response rating (0-100) = 0

# value of Soybean plant response rating (0-100), soybean (Glycine max), item CCOC(=O)C1=CCC(NC(=O)C2(C)CN(c3cc(F)cc(F)c3)C(=O)O2)C1 (stereo not drawn) = 0

So the reported Soybean plant response rating (0-100) for CC1(C(=O)NC2C=CC(C(=O)O)C2)CN(c2cc(F)cc(Cl)c2)C(=O)O1 (stereo not drawn) , on soybean (Glycine max), turned out to be 50

CSCCOC(=O)C1=CCC(NC(=O)C2(C)CN(c3cc(F)cc(F)c3)C(=O)O2)C1 (stereo not drawn) on soybean (Glycine max) gives Soybean plant response rating (0-100) = 10

Summary line: COC(=O)C1=CCC(NC(=O)C2(C)CN(c3cc(Cl)cc(Cl)c3)C(=O)O2)C1 (stereo not drawn) , soybean (Glycine max), reported Soybean plant response rating (0-100) = 20

Form field Soybean plant response rating (0-100) for item CC1(C(=O)NC2CCC(C(=O)O)C2)CN(c2cc(F)cc(F)c2)C(=O)O1 (stereo not drawn) on soybean (Glycine max): 0

Value sought: Soybean plant response rating (0-100), system soybean (Glycine max), item CONC(=O)C1CC(NC(=O)C2(C)CN(c3cc(F)cc(F)c3)C(=O)O2)CO1 (stereo not drawn) [Compound 39] . Result: 0

Soybean plant response rating (0-100) for soybean (Glycine max) with input CCOC(=O)C1=CCC(NC(=O)C2(C)CN(c3cc(Cl)cc(Cl)c3)C(=O)O2)C1 (stereo not drawn) equals 10
